- Test system: MT-4 cells
- Test protocol: Cytotoxicity evaluation in uninfected MT-4 cells
- Type: cell-based
- Test parameters: read-out: av. CC50; average, uninfected MT-4 cells
Measurement name: CC50

I'd like to know its CC50. The molecule in question is [Cl-].[Cl-].[Cl-].[Cl-].[O]=[V+2].[O]=[V+2].c1cc(CN2CCCNCCNCCCNCC2)ccc1CN1CCCNCCNCCCNCC1 [Complex 4] > 161 µM

###

- System: MT-4 cells
- Test protocol: Cytotoxicity evaluation in uninfected MT-4 cells
- Format: cell-based
- Test parameters: single determinations; reduces viability of uninfected MT-4 cells by 50%
Measurement name: CC50

Any idea what CC50 was measured for [Cl-].[Cl-].[Cl-].[Cl-].[O]=[V+2].[O]=[V+2].c1cc(CN2CCCNCCNCCCNCC2)ccc1CN1CCCNCCNCCCNCC1 ? > 161 µM
